Target: T1, His-human LIGHT (human)
T1 construct: also called His-huLIGHT; free LIGHT
T1 chain: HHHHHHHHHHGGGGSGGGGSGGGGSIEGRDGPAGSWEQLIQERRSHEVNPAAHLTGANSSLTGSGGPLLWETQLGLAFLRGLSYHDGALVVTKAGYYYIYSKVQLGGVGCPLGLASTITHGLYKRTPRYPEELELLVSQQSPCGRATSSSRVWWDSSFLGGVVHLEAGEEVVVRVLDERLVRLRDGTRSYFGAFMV
Assay: ELISA, His-huLIGHT coated
READOUT_NAME: EC50 (µg/mL)
Give just the number in µg/mL; leave the unit off.

LT-m55 (antibody, human IgG4, V domains shown) VH: EVQLQQSGAELVKPGASVKLSCKASGYTFATYYMYWVKQRPGQGLEWIGEINPTNGGTIFNEKFKTKATLTVDKSSSTAYMQLSSLTSEDSAVYYCARGNWPYWSFDVWGAGTSVTVSS VL: DIVLTQSPASLAVSLGQRATISCKASQSVDFDGDNYMNWYQQKPGQPPKLLIYAASNLDSGIPARFSASGSGTDFTLNIHPVEEEDAATYYCQQSIEDPWTFGGGTKLEIK :: 0.0332
LT-m18 (antibody, V domains shown) VH: EVKLLESGPELVKPGASVKISCKASGYSFTGYFMNWVKQSHGKSLEWIGRIYPYSGDTFYNQKFNNKATLTVDKSSSTAHLELLSLTSEDSAVYYCGRSEHFGRNYGTGAVDYWGQGTSVTVSS VL: DIVLTQSPLSLPVSLGDQASISCRSSQSLVHSNGNTYLHWYLQKPGQSPKLLIYKVSNRFSGVPDRFSGSGSGTDFTLKISRVEAEDLGVYFCSQSTHVPLTFGDGTRLEIK :: 0.0835

Let us examine a further case.
stdin: Give the reported value of EC50 for this record: LT-m85 (antibody, human IgG4, V domains shown) VH: EVQLQQSGAELVKPGASVKMSCKASGYTFTSYNVHWVKQTPGQGLEWIGAVYPGNGDTSYNQKFKGKATLTADKSSNTAYMQLSSLTSEDSAVYYCARGSYYYTSSYFDHWGQGTTLTVSS VL: DIVLTQSPASLAVSLGQRATISCKASQSVDFDGDSYMNWYQQKPGQPPKLLIYTASNLESGIPARFTGSGSGTDFTLNIHPVEEEDAATYYCQQSYEDPFTFGSGTKLEIK
stdout: 0.0121
